System Name: DDR2 tyrosine kinase (Homo sapiens (Human), UniProt Q16832)
Sequence (Q16832 563-849): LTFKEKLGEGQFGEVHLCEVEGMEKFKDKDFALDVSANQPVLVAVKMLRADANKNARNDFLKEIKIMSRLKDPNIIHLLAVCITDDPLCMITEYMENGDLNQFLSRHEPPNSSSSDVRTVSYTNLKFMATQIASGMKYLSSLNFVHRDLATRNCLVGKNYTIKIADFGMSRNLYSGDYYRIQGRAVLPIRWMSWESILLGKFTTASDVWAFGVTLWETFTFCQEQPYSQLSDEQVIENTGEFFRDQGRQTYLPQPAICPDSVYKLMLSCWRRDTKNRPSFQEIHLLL
Measurement Notes: in vitro DDR2 tyrosine kinase inhibition (GST-fused kinase domain)
Format: biochemical
Run Parameters: 1 uM compound; read-out: % inhibition against DDR2
Measured inhibition at 1 µM of individual entries
Outcome Measure: inhibition at 1 µM

Compound	Observed Result
CN1CCN(C(=O)c2cccc(-c3cc4ncnc(Nc5cccc(O)c5)c4s3)c2)CC1	> 80%
CN1CCN(C(=O)Cc2ccc(-c3cc4ncnc(Nc5cccc(O)c5)c4s3)cc2)CC1	> 70%
CCN(CC)C(=O)c1cccc(-c2cc3ncnc(Nc4cccc(O)c4)c3s2)c1	> 80%
CC(C)CNCc1cccc(-c2cc3ncnc(Nc4cccc(O)c4)c3s2)c1.Cl	> 80%
Cl.Oc1cccc(Nc2ncnc3cc(-c4cccc(CN5CCCC5)c4)sc23)c1	> 80%
N#Cc1ccc(-c2cc3ncnc(Nc4cccc(O)c4)c3s2)cc1	> 60%
Cl.Oc1cccc(Nc2ncnc3cc(-c4ccc(CN5CCC(O)C5)cc4)sc23)c1 (stereo not drawn)	> 80%
Oc1cccc(Nc2ncnc3cc(-c4ccc(CN5CCCCC5)s4)sc23)c1	> 80%
COc1cccc(Nc2ncnc3cc(-c4ccsc4)sc23)c1	> 50%
